Would you kindly list Ki for each of these compounds?
Record the value in nM, omitting the unit from your answer.

Bench note, rat mGlu2 receptor (Rattus norvegicus, UniProt P31421): O=C1CC(c2cccc(-n3ccnn3)c2)=Nc2ccc(-c3ccccc3F)cc2N1 , Ki reads 8

Bench note, rat mGlu2 receptor (Rattus norvegicus, UniProt P31421): O=C1CC(c2cccc(-n3ccnc3)c2)=Nc2ccc(C#Cc3ccccc3)cc2N1 , Ki reads 6

Bench note, rat mGlu2 receptor (Rattus norvegicus, UniProt P31421): Cc1nnc(-c2cccc(C3=Nc4ccc(-c5ccc(F)cc5)cc4NC(=O)C3)c2)n1C , Ki reads 108

Bench note, rat mGlu2 receptor (Rattus norvegicus, UniProt P31421): O=C1CC(c2cccc(-n3ccnn3)c2)=Nc2ccc(-c3ccc(F)cc3F)cc2N1 , Ki reads 10

###

reported_property: melting point

The recorded melting point for entry Cc1cccc(-c2ccc3c(c2)NC(=O)CC(c2cccc(C#N)c2)=N3)c1 equals 248 to 251 °C (dec.)

The recorded melting point for entry O=C1CC(c2sccc2Cl)=Nc2ccc(-c3ccccc3)cc2N1 equals 228 °C (dec.)

The recorded melting point for entry N#Cc1cccc(C2=Nc3ccc(-c4cc(F)ccc4F)cc3NC(=O)C2)c1 equals 247 °C

The recorded melting point for entry NC(=S)c1cccc(C2=Nc3ccc(-c4ccccc4F)cc3NC(=O)C2)c1 equals 232 to 234 °C (dec.)

The recorded melting point for entry O=C1CC(c2cccc([N+](=O)[O-])c2)=Nc2ccc(-c3ccc(F)cc3)cc2N1 equals 220 to 226 °C (dec.)

The recorded melting point for entry N#Cc1cccc(C2=Nc3ccc(-c4ccco4)cc3NC(=O)C2)c1 equals 205 to 210 °C (dec.)

The recorded melting point for entry O=C1CC(c2cccc(-n3ccnc3)c2)=Nc2ccc(C#Cc3ccccc3F)cc2N1 equals 201 to 203 °C

The recorded melting point for entry O=C1CC(c2cccs2)=Nc2ccc(I)cc2N1 equals > 260 °C

The recorded melting point for entry O=C1CC(c2ccnc(-n3ccnc3)c2)=Nc2ccc(-c3ccc(F)cc3)cc2N1 equals 213 °C (dec.)

The recorded melting point for entry N#Cc1cccc(C2=Nc3ccc(-c4ccc(-c5ccccc5)cc4)cc3NC(=O)C2)c1 equals 251 to 253 °C

The recorded melting point for entry COCSc1nccn1-c1cccc(C2=Nc3ccc(-c4ccccc4F)cc3NC(=O)C2)c1 equals 189 to 190 °C

The recorded melting point for entry O=C1CC(c2cccc(-n3ccnc3)c2)=Nc2ccc(C#Cc3ccc(F)cc3)cc2N1 equals 216 to 218 °C

The recorded melting point for entry N#Cc1ccsc1C1=CC(=O)Nc2cc(-c3ccc(F)cc3)ccc2N1 equals 239 to 240 °C

The recorded melting point for entry N#Cc1cccc(C2=Nc3ccc(C#Cc4cccs4)cc3NC(=O)C2)c1 equals 235 to 238 °C (dec.)

The recorded melting point for entry O=C1CC(c2cccc(-n3ccnc3)c2)=Nc2ccc(-c3ccc(F)cc3O)cc2N1 equals 220 °C

The recorded melting point for entry Cc1nnc(-c2cccc(C3=Nc4ccc(-c5ccc(F)cc5)cc4NC(=O)C3)c2)n1C equals 238 to 240 °C (dec.)

The recorded melting point for entry O=C1CC(c2cccc(-n3cnnc3)c2)=Nc2ccc(-c3ccccc3F)cc2N1 equals 198 °C

The recorded melting point for entry N#Cc1cccc(C2=Nc3ccc(C#Cc4nccs4)cc3NC(=O)C2)c1 equals 230 °C (dec.)

The recorded melting point for entry N#Cc1cccc(C2=Nc3ccc(C#Cc4ccccn4)cc3NC(=O)C2)c1 equals 229 to 231 °C (dec.)

The recorded melting point for entry Cc1nc(-c2cccc(C3=Nc4ccc(-c5ccc(F)cc5)cc4NC(=O)C3)c2)sc1C(=O)NCCO equals 248 to 251 °C (dec.)

The recorded melting point for entry N#Cc1cccc(C2=Nc3ccc(C(=O)c4ccccc4)cc3NC(=O)C2)c1 equals 207 °C (dec.)

The recorded melting point for entry CC(C)c1ccc2c(c1)NC(=O)CC(c1ccnc(C#N)c1)=N2 equals 173 to 178 °C

The recorded melting point for entry O=C1CC(c2sccc2Cl)=Nc2ccc(-c3ccc(F)cc3)cc2N1 equals 255 to 256 °C

The recorded melting point for entry N#Cc1cccc(C2=Nc3ccc(C#Cc4ccc(Cl)cc4)cc3NC(=O)C2)c1 equals 237 to 240 °C (dec.)

Source of measurements: patent US6509328B1
